- Measured on: SARS-CoV-2 RBD construct consisting of residues Pro330-Gly526 fused to Venus YFP (RBD-vYFP) (SARS-CoV-2, UniProt P0DTC2)
Value kind: binding result

binder="Sb#52 (VHH) VHH: QVQLVESGGGSVQAGGSLRLSCAASGNIQRIYYLGWFRQAPGKEREGVAALMTYTGHTYYADSVKGRFTVSLDNAKNTVYLQMNSLKPEDTALYYCAAAYVGAENPLPYSMYGYWGQGTQVTVS" value_kind="binding result" result=binds
binder="Sb#59 (VHH) VHH: QVQLVESGGGSVQAGGSLRLSCAASGNIESIYYLGWFRQAPGKEREGVAALWTGDGETYYADSVKGRFTVSLDNAKNTVYLQMNSLKPEDTALYYCAAAAWGNSAPLTTYRYYYWGQGTQVTVS" value_kind="binding result" result=binds
